Data provenance is patent US20100196385A1.

binders and their reported % inhibition 10 µg/ml, N = 2 (HUVEC proliferation on coated DLL4)
- EXPERIMENTAL SYSTEM: DLL4 extracellular domain (R&D systems, catalog #1506-D4/CF) (UniProt Q9NR61 27-529, limits assumed)
- Sequence (Q9NR61 27-529 limits assumed): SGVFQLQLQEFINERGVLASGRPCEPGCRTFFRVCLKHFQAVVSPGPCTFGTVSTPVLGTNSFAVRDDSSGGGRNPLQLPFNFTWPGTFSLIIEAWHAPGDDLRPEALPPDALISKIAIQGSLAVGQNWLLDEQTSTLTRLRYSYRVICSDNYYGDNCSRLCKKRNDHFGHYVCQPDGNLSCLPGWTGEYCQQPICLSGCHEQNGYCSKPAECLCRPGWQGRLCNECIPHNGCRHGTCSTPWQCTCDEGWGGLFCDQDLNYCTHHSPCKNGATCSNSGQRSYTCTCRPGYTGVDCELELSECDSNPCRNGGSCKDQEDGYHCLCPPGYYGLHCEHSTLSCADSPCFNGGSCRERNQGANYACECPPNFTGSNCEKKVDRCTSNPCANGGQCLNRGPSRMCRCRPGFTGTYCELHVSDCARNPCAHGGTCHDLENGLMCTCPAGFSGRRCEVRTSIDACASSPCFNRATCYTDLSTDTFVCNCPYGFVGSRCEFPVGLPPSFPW
- PROTOCOL DESCRIPTION: cell-based or functional assay
OBSERVABLE: % inhibition 10 µg/ml, N = 2 (HUVEC proliferation on coated DLL4) (%)

1) 21H3 (antibody, IgG4, V domains shown, Fully human; used for IgG4 rows and where no isotype is printed; also called 21H3 IgG4) VH: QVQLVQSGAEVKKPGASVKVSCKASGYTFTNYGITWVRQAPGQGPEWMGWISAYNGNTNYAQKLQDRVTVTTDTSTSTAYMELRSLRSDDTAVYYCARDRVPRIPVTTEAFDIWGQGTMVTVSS VL: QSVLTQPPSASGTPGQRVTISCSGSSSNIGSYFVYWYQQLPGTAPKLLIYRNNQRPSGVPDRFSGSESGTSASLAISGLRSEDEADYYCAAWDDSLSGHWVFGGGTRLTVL : 89
2) 1D4 (antibody, IgG4, V domains shown, Fully human XenoMouse antibody; also used where no isotype is printed) VH: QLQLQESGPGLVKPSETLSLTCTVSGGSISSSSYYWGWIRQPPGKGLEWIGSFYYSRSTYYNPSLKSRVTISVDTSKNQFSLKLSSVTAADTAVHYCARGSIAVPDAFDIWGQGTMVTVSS VL: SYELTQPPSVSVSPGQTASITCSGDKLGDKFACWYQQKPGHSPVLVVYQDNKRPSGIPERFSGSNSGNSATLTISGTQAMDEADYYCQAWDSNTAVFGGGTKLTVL : 71
3) 9G8 (antibody, IgG4, V domains shown, Fully human; used for IgG4 rows and where no isotype is printed; also called 9G8 IgG4) VH: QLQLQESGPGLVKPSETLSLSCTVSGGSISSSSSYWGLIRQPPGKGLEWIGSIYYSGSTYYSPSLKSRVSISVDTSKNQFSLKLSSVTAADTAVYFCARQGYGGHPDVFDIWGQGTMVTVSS VL: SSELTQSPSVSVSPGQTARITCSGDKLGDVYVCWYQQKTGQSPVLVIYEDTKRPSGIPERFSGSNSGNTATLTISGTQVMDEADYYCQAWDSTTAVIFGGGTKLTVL : 82
4) 3A7 (antibody, IgG4, V domains shown, Fully human; also used where no isotype is printed) VH: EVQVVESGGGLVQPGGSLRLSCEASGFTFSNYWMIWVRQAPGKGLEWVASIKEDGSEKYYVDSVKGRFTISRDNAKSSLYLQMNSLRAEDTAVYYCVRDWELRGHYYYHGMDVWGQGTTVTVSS VL: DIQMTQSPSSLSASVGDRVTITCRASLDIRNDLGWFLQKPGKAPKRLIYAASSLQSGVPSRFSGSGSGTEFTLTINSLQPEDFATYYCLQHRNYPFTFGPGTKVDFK : 106
5) 1E4 (antibody, IgG2, V domains shown, Fully human; also used where no isotype is printed) VH: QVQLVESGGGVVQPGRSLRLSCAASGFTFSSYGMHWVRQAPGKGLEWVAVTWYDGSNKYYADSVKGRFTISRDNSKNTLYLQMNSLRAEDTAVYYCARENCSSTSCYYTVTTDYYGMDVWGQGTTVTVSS VL: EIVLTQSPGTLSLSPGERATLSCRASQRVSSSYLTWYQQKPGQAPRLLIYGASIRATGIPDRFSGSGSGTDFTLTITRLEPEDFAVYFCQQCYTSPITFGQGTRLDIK : 82
